// reported KIDNEY_TOTAL per item
# Organism: Rattus norvegicus
# method-notes: Open TG-GATES - Regimen: Single
# Type: toxicity, organism-based, Sprague-Dawley
# Set-up: regimen Single, gender Male, age 6 weeks
# assay-conditions: in vivo, po, 30 mg/kg, 6 h, tissue Kidney, route gavage, dose level Middle
Report as a plain number; the unit g is understood.

Examples from the recorded data:
CN(C)CCN(Cc1cccs1)c1ccccn1 | 1.7
CC1=C(/C=C/C(C)=C/C=C/C(C)=C/CO)C(C)(C)CCC1 [RETINOL] | 1.8
CN(C)CCCN1c2ccccc2CCc2ccccc21 [IMIPRAMINE] | 1.8

Briefly, KIDNEY_TOTAL measured for CN(C)CCCN1c2ccccc2CCc2ccc(Cl)cc21 [CLOMIPRAMINE] : 2

###

# Organism: Rattus norvegicus
# method-notes: Open TG-GATES - Regimen: Daily Repeat
# Assay type: toxicity, organism-based, Sprague-Dawley
# Design: regimen Daily Repeat, gender Male, age 6 weeks
# assay-conditions: in vivo, po, 0 mg/kg, […], tissue Blood, route gavage, dose level Control, time 14 day
For each record, check the reported RBC: if it is below 700 x10_4/ul write met, else write not met.

Worked examples follow.
CCOC(=O)CCC(=O)O[C@H]1[C@H](O[C@@H]2[C@@H](C)[C@H](O[C@H]3C[C@@](C)(OC)[C@@H](O)[C@H](C)O3)[C@@H](C)C(=O)O[C@H](CC)[C@@](C)(O)[C@H](O)[C@@H](C)C(=O)[C@H](C)C[C@@]2(C)O)O[C@H](C)C[C@@H]1N(C)C [ERYTHROMYCIN ETHYLSUCCINATE] | met
CN1C(=O)CN=C(c2ccccc2)c2cc(Cl)ccc21 [DIAZEPAM] | not met
NNC(=O)c1ccncc1 [ISONIAZID] | not met

Q: Strictly below 700 x10_4/ul in RBC? CC1=C(/C=C/C(C)=C/C=C/C(C)=C/CO)C(C)(C)CCC1 [RETINOL]
Ans: met

Q: Strictly below 700 x10_4/ul in RBC? COC1=CC(=O)C[C@@H](C)[C@]12Oc1c(Cl)c(OC)cc(OC)c1C2=O [GRISEOFULVIN]
Ans: met

###

# Species: Rattus norvegicus
# method-notes: Open TG-GATES - Regimen: Single
# Format: toxicity, organism-based, Sprague-Dawley
# Parameters: regimen Single, gender Male, age 6 weeks
# assay-conditions: in vivo, po, 100 mg/kg, 3 h, tissue Plasma, route gavage, dose level Low
observed-property: ALP (IU/L)
Report as a plain number; the unit IU/L is understood.

NC(N)=Nc1nc(CSCCC(N)=NS(N)(=O)=O)cs1 | 1057.6

Briefly, ALP measured for COC1=CC(=O)C[C@@H](C)[C@]12Oc1c(Cl)c(OC)cc(OC)c1C2=O : 1005.8

Briefly, ALP measured for CCOC(=O)CCC(=O)O[C@H]1[C@H](O[C@@H]2[C@@H](C)[C@H](O[C@H]3C[C@@](C)(OC)[C@@H](O)[C@H](C)O3)[C@@H](C)C(=O)O[C@H](CC)[C@@](C)(O)[C@H](O)[C@@H](C)C(=O)[C@H](C)C[C@@]2(C)O)O[C@H](C)C[C@@H]1N(C)C [ERYTHROMYCIN ETHYLSUCCINATE] : 1930.6

Briefly, ALP measured for COc1ccc2[nH]c([S+]([O-])Cc3ncc(C)c(OC)c3C)nc2c1 (centres undefined) : 983

###

# Organism: Rattus norvegicus
# method-notes: Open TG-GATES - Regimen: Single
# Assay type: toxicity, organism-based, Sprague-Dawley
# Design: regimen Single, gender Male, age 6 weeks
# assay-conditions: in vivo, po, 10 mg/kg, 9 h, tissue Plasma, route gavage, dose level Low
observed-property: IP (mg/dL)
Report as a plain number; the unit mg/dL is understood.

CN(C)CCCN1c2ccccc2CCc2ccc(Cl)cc21 | 10.2
CC(C)OC(=O)C(C)(C)Oc1ccc(C(=O)c2ccc(Cl)cc2)cc1 [FENOFIBRATE] | 9.8
CC1=C(/C=C/C(C)=C/C=C/C(C)=C/CO)C(C)(C)CCC1 | 10.6
CN(C)CCCN1c2ccccc2CCc2ccccc21 | 9.9

The record that follows has no IP shown yet.
Briefly, IP measured for CN(C)CCN(Cc1cccs1)c1ccccn1 : 9.6

###

// reported MCHC per item
# Organism: Rattus norvegicus
# method-notes: Open TG-GATES - Regimen: Single
# Type: toxicity, organism-based, Sprague-Dawley
# Parameters: regimen Single, gender Male, age 6 weeks
# assay-conditions: in vivo, po, 0 mg/kg, 9 h, tissue Blood, route gavage, dose level Control

Examples from the recorded data:
Cc1ccc(C)c(OCCCC(C)(C)C(=O)O)c1 | 34.1%
COc1cc2c(c(OC)c1OC)-c1ccc(OC)c(=O)cc1[C@@H](NC(C)=O)CC2 | 33%
COC1=CC(=O)C[C@@H](C)[C@]12Oc1c(Cl)c(OC)cc(OC)c1C2=O | 33.9%
CN1C(=O)CN=C(c2ccccc2)c2cc(Cl)ccc21 | 32.8%
O=C(CCCN1CCC(O)(c2ccc(Cl)cc2)CC1)c1ccc(F)cc1 | 33.3%

Briefly, MCHC measured for CCCNC(=O)NS(=O)(=O)c1ccc(Cl)cc1 [CHLORPROPAMIDE] : 32.8%

Briefly, MCHC measured for COc1ccc2[nH]c([S+]([O-])Cc3ncc(C)c(OC)c3C)nc2c1 (stereo not drawn) : 34.3%

Briefly, MCHC measured for C[C@@H]1C[C@H]2[C@@H]3CCC4=CC(=O)C=C[C@]4(C)[C@@]3(F)[C@@H](O)C[C@]2(C)[C@@]1(O)C(=O)CO : 33%

Briefly, MCHC measured for NC(N)=Nc1nc(CSCCC(N)=NS(N)(=O)=O)cs1 : 36.2%

Briefly, MCHC measured for CC(C)OC(=O)C(C)(C)Oc1ccc(C(=O)c2ccc(Cl)cc2)cc1 [FENOFIBRATE] : 32.3%

Briefly, MCHC measured for CN(C)CCCN1c2ccccc2CCc2ccc(Cl)cc21 : 32.6%

Briefly, MCHC measured for CCOc1ccc(NC(=O)CC(C)O)cc1 (stereo not drawn) : 33.2%

Briefly, MCHC measured for CN(C)CCCN1c2ccccc2CCc2ccccc21 : 32.3%

Briefly, MCHC measured for CC/C(=C(\c1ccccc1)c1ccc(OCCN(C)C)cc1)c1ccccc1 : 33.4%

Briefly, MCHC measured for CCOC(=O)CCC(=O)O[C@H]1[C@H](O[C@@H]2[C@@H](C)[C@H](O[C@H]3C[C@@](C)(OC)[C@@H](O)[C@H](C)O3)[C@@H](C)C(=O)O[C@H](CC)[C@@](C)(O)[C@H](O)[C@@H](C)C(=O)[C@H](C)C[C@@]2(C)O)O[C@H](C)C[C@@H]1N(C)C [ERYTHROMYCIN ETHYLSUCCINATE] : 32.8%

Briefly, MCHC measured for NNC(=O)c1ccncc1 : 35.7%

Briefly, MCHC measured for CC1=C(/C=C/C(C)=C/C=C/C(C)=C/CO)C(C)(C)CCC1 : 34.3%

Briefly, MCHC measured for CN(C)CCN(Cc1cccs1)c1ccccn1 : 33.1%

###

# Organism: Rattus norvegicus
# method-notes: Open TG-GATES - Regimen: Single
# Format: toxicity, organism-based, Sprague-Dawley
# Parameters: regimen Single, gender Male, age 6 weeks
# assay-conditions: in vivo, po, 0 mg/kg, 24 h, route gavage, dose level Control
observed-property: TERMINAL_BW (g)
Report as a plain number; the unit g is understood.

NNC(=O)c1ccncc1 [ISONIAZID] | 234.8
COc1cc2c(c(OC)c1OC)-c1ccc(OC)c(=O)cc1[C@@H](NC(C)=O)CC2 [COLCHICINE] | 232.9
Cc1ccc(C)c(OCCCC(C)(C)C(=O)O)c1 [GEMFIBROZIL] | 226.6
C[C@@H]1C[C@H]2[C@@H]3CCC4=CC(=O)C=C[C@]4(C)[C@@]3(F)[C@@H](O)C[C@]2(C)[C@@]1(O)C(=O)CO [DEXAMETHASONE] | 229.3

Briefly, TERMINAL_BW measured for CC/C(=C(\c1ccccc1)c1ccc(OCCN(C)C)cc1)c1ccccc1 [TAMOXIFEN] : 200.5

Briefly, TERMINAL_BW measured for CN(C)CCCN1c2ccccc2CCc2ccc(Cl)cc21 [CLOMIPRAMINE] : 229.8

Briefly, TERMINAL_BW measured for CCCNC(=O)NS(=O)(=O)c1ccc(Cl)cc1 [CHLORPROPAMIDE] : 211.4

Briefly, TERMINAL_BW measured for CN(C)CCCN1c2ccccc2CCc2ccccc21 [IMIPRAMINE] : 217.3

Briefly, TERMINAL_BW measured for O=C(CCCN1CCC(O)(c2ccc(Cl)cc2)CC1)c1ccc(F)cc1 [HALOPERIDOL] : 214.4

Briefly, TERMINAL_BW measured for NC(N)=Nc1nc(CSCCC(N)=NS(N)(=O)=O)cs1 [FAMOTIDINE] : 226.6
